# Measured Target: Recombinant human Menin protein (2-610) / MLL polypeptide binding (Homo sapiens (Human))
# Experimental Details: Menin and MLL protein binding at a molecular level (fluorescence polarization method)
# Conditions Used: inhibition of Menin / MLL polypeptide binding
Measured Metric: IC50 (nM)
Numbers only, in nM.

For orientation, consider the following solved cases.
[[record]]
structure = "CCN(C(=O)c1cc(F)ccc1Oc1nncnc1N1CC(C2(N(CCO)Cc3ccc4[nH]c(C#N)cc4c3C)CC2)C1)C(C)C"
measured_target = "Recombinant human Menin protein (2-610) / MLL polypeptide binding (Homo sapiens (Human))"
measured_metric = "IC50"
unit_text = "nM"
observed_value = 4.9

[[record]]
structure = "CCN(C(=O)c1cc(F)ccc1Oc1nncnc1N1CC2(CCN(CC3CCN(C(=O)NC(C)C)CC3)CC2)C1)C(C)C"
measured_target = "Recombinant human Menin protein (2-610) / MLL polypeptide binding (Homo sapiens (Human))"
measured_metric = "IC50"
unit_text = "nM"
observed_value = 2.5


Hi team, please reply with IC50 for each item in this list.
1. C[C@H]1CN(C)CCN1C(=O)c1cc(F)ccc1Oc1nncnc1N1CC2(CCN(CC3CCN(c4ccccn4)CC3)CC2)C1
2. CCN(C(=O)c1cc(F)ccc1Oc1nncnc1N1CC2(CCN(CC3CCN(c4ccc(Br)c(=O)n4C)CC3)CC2)C1)C(C)C

878
89.9

====

# System: MV-4-11 cells (human acute myelogenous leukemia cell line carrying MLL-AF4 mutation)
# Experimental Details: Cell proliferation assay, MV-4-11 (CellTiter-Glo)
# Assay type: cell-based
# Conditions Used: Homo sapiens, MV4-11, 72 h, MV-4-11 cells, 3 days treatment, CellTiter-Glo; read-out: GI50
Okay, here is how we bin by GI50: bin 1: < 9 nM; bin 2: ≥ 9 nM and < 100 nM; bin 3: ≥ 100 nM

Consider the worked cases shown below.
[[record]]
compound = "CCN(C(=O)c1cc(F)ccc1Oc1nncnc1N1CC2(CCN(CC3CCN(c4cccc(C(N)=O)n4)CC3)CC2)C1)C(C)C"
label_class = "bin 1"

[[record]]
compound = "CCN(C(=O)c1cc(F)ccc1Oc1nncnc1N1CC2(CCN(Cc3ccc4oc(C)cc4c3)CC2)C1)C(C)C"
label_class = "bin 2"

[[record]]
compound = "CCN(C(=O)c1cc(F)ccc1Oc1nncnc1N1CC2(CCN(CC3CCN(c4cnnc(OC)c4)CC3)CC2)C1)C(C)C"
label_class = "bin 1"

[[record]]
compound = "CCN(C(=O)c1cc(F)ccc1Oc1nncnc1N1CC2(CCN(Cc3ccc4[nH]ccc4c3)CC2)C1)C(C)C"
label_class = "bin 3"

[[record]]
compound = "CCN(C(=O)c1cc(F)ccc1Oc1nncnc1N1CC2(CCN(CC3CCN(c4cc(C(F)(F)F)cnn4)CC3)CC2)C1)C(C)C"
label_class = "bin 1"

[[record]]
compound = "CCN(C(=O)c1cc(F)ccc1Oc1nncnc1N1CC2(CCN(CC3CCN(c4cc(C(N)=O)ccn4)CC3)CC2)C1)C(C)C"
label_class = "bin 1"


Please classify: CCN(C(=O)c1cc(F)ccc1Oc1nncnc1N1CC2(CCN(CC3CCN(c4cccc(=O)n4C)CC3)CC2)C1)C(C)C
bin 3

Please classify: CCN(C(=O)c1cc(F)ccc1Oc1nncnc1N1CC2(CCN(CC3CCN(C(=O)NC4COC4)CC3)CC2)C1)C(C)C
bin 2

Please classify: CCN(C(=O)c1cc(F)ccc1Oc1nncnc1N1CC2(CCN(Cc3ccc4[nH]c(=O)ccc4c3)CC2)C1)C(C)C
bin 2

Please classify: CCN(C(=O)c1cc(F)ccc1Oc1nncnc1N1CC2(CCN(CC3CCN(C(=O)C(C)O)CC3)CC2)C1)C(C)C (centres unmarked)
bin 3

Please classify: CCN(C(=O)c1cc(F)ccc1Oc1nncnc1N1CC2(CCN(CC3CCN(C(=O)c4cnn5cccnc45)CC3)CC2)C1)C(C)C
bin 3

Please classify: COc1cc(F)ccc1Oc1nncnc1N1CC2(CCN(Cc3ccc4c(cc(C#N)n4CCO)c3C)CC2)C1
bin 3

====

# Measured Target: Recombinant human Menin protein (2-610) / MLL polypeptide binding (Homo sapiens (Human), UniProt O00255)
# Sequence (O00255 2-610): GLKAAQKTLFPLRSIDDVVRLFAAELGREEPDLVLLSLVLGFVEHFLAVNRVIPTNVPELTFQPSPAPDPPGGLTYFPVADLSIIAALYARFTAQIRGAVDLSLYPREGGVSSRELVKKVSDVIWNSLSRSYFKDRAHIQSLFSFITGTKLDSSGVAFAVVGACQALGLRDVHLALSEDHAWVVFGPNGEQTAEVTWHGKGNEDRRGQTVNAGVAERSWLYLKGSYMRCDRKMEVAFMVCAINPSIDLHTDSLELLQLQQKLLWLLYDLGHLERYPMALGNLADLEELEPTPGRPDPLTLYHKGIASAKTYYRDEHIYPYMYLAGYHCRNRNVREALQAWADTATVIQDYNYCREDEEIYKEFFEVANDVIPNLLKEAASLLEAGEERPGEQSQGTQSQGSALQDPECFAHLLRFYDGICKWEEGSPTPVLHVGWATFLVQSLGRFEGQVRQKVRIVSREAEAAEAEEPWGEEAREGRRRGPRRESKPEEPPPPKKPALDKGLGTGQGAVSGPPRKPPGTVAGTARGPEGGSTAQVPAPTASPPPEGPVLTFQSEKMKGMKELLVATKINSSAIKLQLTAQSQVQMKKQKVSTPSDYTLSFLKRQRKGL
# Experimental Details: Menin and MLL protein binding at a molecular level (fluorescence polarization method)
# Conditions Used: inhibition of Menin / MLL polypeptide binding
We label by threshold. Values of IC50 strictly beneath 10 nM are condition met. Values of 10 nM and up are condition not met.

Consider the worked cases shown below.
[[record]]
molecule = "CCN(C(=O)c1cc(F)ccc1Oc1nncnc1N1CCC(C2(NCc3ccc4[nH]c(C#N)cc4c3C)CC2)C1)C(C)C (stereo not drawn)"
label_class = "condition met"

[[record]]
molecule = "COc1cc(N2CCC(CN3CCC4(CC3)CN(c3ncnnc3Oc3ccc(F)cc3-c3ccnn3C(C)C)C4)CC2)nnc1OC"
label_class = "condition met"

[[record]]
molecule = "CCN(C(=O)c1cc(F)ccc1Oc1nncnc1N1CC(C2(N(C)Cc3cc(C#N)n(C)n3)CC2)C1)C(C)C"
label_class = "condition not met"


Would you kindly verify if IC50 of CCN(C(=O)c1cc(F)ccc1Oc1nncnc1N1CC2(CCN(Cc3ccc(Cl)nc3)CC2)C1)C(C)C is strictly less than 10 nM?
condition not met

Would you kindly verify if IC50 of CCN(C(=O)c1cc(F)ccc1Oc1nncnc1N1CC2(CCN(Cc3cnc(OC)c(Cl)c3C)CC2)C1)C(C)C is strictly less than 10 nM?
condition not met

Would you kindly verify if IC50 of CCN(C(=O)c1cc(F)ccc1Oc1nncnc1N1CC2(CCN(CC3CCN(C(=O)NCCOC)CC3)CC2)C1)C(C)C is strictly less than 10 nM?
condition not met

Would you kindly verify if IC50 of CCN(C(=O)c1cc(F)ccc1Oc1nncnc1N1CC2(CCN(CC3CCN(C(=O)NC4COC4)CC3)CC2)C1)C(C)C is strictly less than 10 nM?
condition met

Would you kindly verify if IC50 of CCN(C(=O)c1cc(F)ccc1Oc1nncnc1N1CC2(CCN(Cc3ccc4c(c3)cc(C#N)n4CCO)CC2)C1)C(C)C is strictly less than 10 nM?
condition not met

Would you kindly verify if IC50 of CCN(C(=O)c1cc(F)ccc1Oc1nncnc1N1CC2(CCN(CC3CCN(c4cc(OC)cnn4)CC3)CC2)C1)C(C)C is strictly less than 10 nM?
condition met

====

# Tested on: MV-4-11 cells (human acute myelogenous leukemia cell line carrying MLL-AF4 mutation)
# Experimental Details: Cell proliferation assay, MV-4-11 (CellTiter-Glo)
# Assay type: cell-based
# Conditions Used: Homo sapiens, MV4-11, 72 h, MV-4-11 cells, 3 days treatment, CellTiter-Glo; read-out: GI50
Measured Metric: GI50 (nM)
Answers are plain numbers, in nM.

For orientation, consider the following solved cases.
[[record]]
molecule = "CCN(C(=O)c1cc(F)ccc1Oc1nncnc1N1CC(C2(N(Cc3ccc4[nH]c(C#N)cc4c3C)C(C)C)CC2)C1)C(C)C"
unit_text = "nM"
observed_value = 442

[[record]]
molecule = "CCN(C(=O)c1cc(F)ccc1Oc1nncnc1N1CC2(CCN(CC3CCN(C(=O)C4(OC)CC4)CC3)CC2)C1)C(C)C"
unit_text = "nM"
observed_value = 86


Hi team, please reply with GI50 for each item in this list.
1. CCN(C(=O)c1cc(F)ccc1Oc1nncnc1N1CCC(C2(N(Cc3ccc4[nH]c(C#N)cc4c3C)C(C)C)CC2)C1)C(C)C (stereo not shown)
2. CCN(C(=O)c1cc(F)ccc1Oc1nncnc1N1CC2(CCN(CC3CCN(c4ccc5nccn5n4)CC3)CC2)C1)C(C)C
3. CCN(C(=O)c1cc(F)ccc1Oc1nncnc1N1CC2(CCN(Cc3ccc4c(cc(C(=O)NC)n4CCO)c3C)CC2)C1)C(C)C

2950
13
369

====

# Measured Target: Recombinant human Menin protein (2-610) / MLL polypeptide binding (Homo sapiens (Human), UniProt O00255)
# Experimental Details: Menin and MLL protein binding at a molecular level (fluorescence polarization method)
# Conditions Used: inhibition of Menin / MLL polypeptide binding
Measured Metric: IC50 (nM)
Numbers only, in nM.

Hi team, please reply with IC50 for each item in this list.
1. COc1cc(N2CCC(CN3CCC4(CC3)CN(c3ncnnc3Oc3ccc(F)cc3C(=O)OC(C)C)C4)CC2)nnc1OC
2. COc1cc(N2CCC(CN3CCC4(CC3)CN(c3ncnnc3Oc3ccc(F)cc3)C4)CC2)nnc1OC
3. CCN(C(=O)c1cc(F)ccc1Oc1nncnc1N1CC2(CCN(CC3CCN(c4ccc(OC)nn4)CC3)CC2)C1)C(C)C

1. 0.9
2. 15.9
3. 1.1

====

# Test system: MV-4-11 cells (human acute myelogenous leukemia cell line carrying MLL-AF4 mutation)
# Experimental Details: Cell proliferation assay, MV-4-11 (CellTiter-Glo)
# Format: cell-based
# Conditions Used: Homo sapiens, MV4-11, 72 h, MV-4-11 cells, 3 days treatment, CellTiter-Glo; read-out: GI50
Task for the reader: assign each of the following compounds its reported log10 of GI50.
In plain terms, each number is the log10 of measured GI50 in nM.

[[record]]
structure = "CCN(C(=O)c1cc(F)ccc1Oc1nncnc1N1CC2(CCN(CC3CCN(C(=O)N(C)C)CC3)CC2)C1)C(C)C"
measured_metric = "log10 of GI50"
observed_value = 1.73


Hi team, please reply with log10 of GI50 for each item in this list.
1. CCN(C(=O)c1cc(F)ccc1Oc1nncnc1N1CC2(CCN(CC3CCN(c4cccnn4)CC3)CC2)C1)C(C)C
2. CCN(C(=O)c1cc(F)ccc1Oc1nncnc1N1CC2(CCN(CC3CCN(c4cc(OC)c(OC)cn4)CC3)CC2)C1)C(C)C
3. COc1cc(N2CCC(CN3CCC4(CC3)CN(c3ncnnc3Oc3ccc(F)cc3C(=O)N3CCCC3)C4)CC2)nnc1OC
4. CCN(C(=O)c1cc(F)ccc1Oc1nncnc1N1CC2(CCN(Cc3ccc4c(c3)cc(C#N)n4CCO)CC2)C1)C(C)C
5. CCN(C(=O)c1cc(F)ccc1Oc1nncnc1N1CC2(CCN(CC3CCN(C(=O)c4ccccn4)CC3)CC2)C1)C(C)C
6. CCN(C(=O)c1cc(F)ccc1Oc1nncnc1N1CC2(CCN(CC3CCN(c4ccc5ncnn5c4)CC3)CC2)C1)C(C)C

[0.85, 0.48, 1.41, 1.48, 1.64, 1.65]
